Source: patent US8445240B2

Target Under Test: UniProt:D0E8H0
Sequence (D0E8H0 entry or part of it): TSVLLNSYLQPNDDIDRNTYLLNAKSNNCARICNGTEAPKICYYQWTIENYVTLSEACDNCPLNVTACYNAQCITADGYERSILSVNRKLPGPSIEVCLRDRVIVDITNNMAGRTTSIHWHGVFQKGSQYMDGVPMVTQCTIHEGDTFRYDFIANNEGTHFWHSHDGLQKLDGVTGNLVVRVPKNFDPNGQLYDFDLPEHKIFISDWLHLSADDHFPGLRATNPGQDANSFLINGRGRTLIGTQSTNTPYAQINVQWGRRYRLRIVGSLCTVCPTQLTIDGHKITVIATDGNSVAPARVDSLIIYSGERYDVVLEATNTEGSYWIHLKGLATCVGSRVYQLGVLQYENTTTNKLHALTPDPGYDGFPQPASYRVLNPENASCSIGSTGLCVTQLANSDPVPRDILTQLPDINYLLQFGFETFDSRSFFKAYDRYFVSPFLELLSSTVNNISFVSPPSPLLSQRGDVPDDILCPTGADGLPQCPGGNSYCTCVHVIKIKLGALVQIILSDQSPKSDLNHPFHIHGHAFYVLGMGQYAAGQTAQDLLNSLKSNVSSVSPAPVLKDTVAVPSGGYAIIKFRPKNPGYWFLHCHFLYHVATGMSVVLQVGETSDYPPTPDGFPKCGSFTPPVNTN
Method Summary: RfLacA substrate specificity and kinetic parameters
Experimental Setup: RfLacA, per substrate
Exercise: for every item that follows, state its recorded Optimal pH.
One number for each entry.

Below, each entry is followed by its recorded Optimal pH result.
COc1cccc(OC)c1O [2,6-DMP, 2,6-dimethoxyphenol]	7.5
Oc1cccc(O)c1O [Pyrogallol]	7
COc1cc(/C=C/C(=O)O)cc(OC)c1O [Sinapinic Acid]	7.5

// below: Optimal pH requested for another molecule
Data request, read-out Optimal pH, for Oc1ccccc1O [Pyrocatechol]
7.5

---

Target Under Test: UniProt:D0E8H0
Method Summary: RfLacA substrate specificity and kinetic parameters
Experimental Setup: RfLacA; 1 mM substrate; hydroquinone = 100
Answer each item with its documented Relative Activity (%).
One number for each entry, in %.

N[C@@H](Cc1ccc(O)c(O)c1)C(=O)O [L-DOPA]	8.07

Record Relative Activity (%) per entry; entries follow.
1. NCCC(=O)NCCc1ccc(O)c(O)c1 [NBAD]
2. Oc1cccc(O)c1O [Pyrogallol]
3. COc1cccc(OC)c1O [2,6-DMP, 2,6-dimethoxyphenol]

1. 2.27
2. 17.70
3. 25.63
